# target of assay: human GABAA α1β2γ1 receptor (Homo sapiens (Human), UniProt P14867+Q8N1C3)
# protocol details: Binding assay, competition for [^3H]RO7239181, membranes from HEK293F cells
result type: Ki

Challenge: Which Ki reading was recorded for the molecule CN1C(=O)CN=C(c2cc(O)ccc2Cl)c2cc(Cl)ccc21 [RE-A, reference compound] ?
Response given: 6.84 nM

* * *

# target of assay: human GABAA α1β3γ2 receptor (Homo sapiens (Human), UniProt P14867+P18507)
# protocol details: Binding assay, competition for [^3H]Flumazenil, HEK293F cells
result type: Ki (nM)
Numbers only, in nM.

Challenge: Which Ki reading was recorded for the compound CN1C(=O)CN=C(c2cc(O)ccc2Cl)c2cc(Cl)ccc21 [RE-A, reference compound] ?
Response given: 1.5

* * *

# target of assay: human GABAA α2β2γ1 receptor (Homo sapiens (Human), UniProt P47869+Q8N1C3)
# protocol details: Binding assay, competition for [^3H]RO7239181, membranes from HEK293F cells
result type: Ki (nM)
Give bare numbers, in nM.

Challenge: Which Ki reading was recorded for the compound CN1C(=O)CN=C(c2cc(O)ccc2Cl)c2cc(Cl)ccc21 [RE-A, reference compound] ?
Response given: 2.79
